System: Escherichia coli TOP10;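 also: peptides expressed intracellularly from a pBAD plasmid library in pooled LB shake-flask culture, induced with 0.3% L-arabinose, DNA abundance read by NGS, three biological replicates, DESeq2 with apeglm shrinkage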
test details: shrunken log2 fold change of peptide-encoding DNA abundance (4.5 h post-induction vs induction); higher = less antimicrobial activity (less host growth inhibition)
reported conditions: time post-induction: 4.5 h; library: site-saturation at positions 5, 18, 19, 20
Decision: shrunken log2 fold change compared against -0.1; not below it gives 1, below it gives 0.

{"columns": ["seq text", "answer label"],
 "data": [
  ["RRIRPRPPRLPRPRPRPYRLPRP", 0],
  ["RRIRPRPPRLPRPRPRPPELPRP", 1],
  ["RRIRQRPPRLPRPRPRPFKLPRP", 0],
  ["RRIRSRPPRLPRPRPRPFAYPRP", 0],
  ["RRIRHRPPRLPRPRPRPLHIPRP", 0],
  ["RRIRYRPPRLPRPRPRPPFQPRP", 0],
  ["RRIRGRPPRLPRPRPRPSNFPRP", 1],
  ["RRIRWRPPRLPRPRPRPRFNPRP", 1],
  ["RRIRGRPPRLPRPRPRPIVYPRP", 1],
  ["RRIRQRPPRLPRPRPRPTYPPRP", 1],
  ["RRIRRRPPRLPRPRPRPGYYPRP", 0],
  ["RRIRPRPPRLPRPRPRPFFAPRP", 1],
  ["RRIRERPPRLPRPRPRPMYAPRP", 0],
  ["RRIRCRPPRLPRPRPRPLDQPRP", 1],
  ["RRIRTRPPRLPRPRPRPHKIPRP", 0]
]}
